Recorded Lesion area ratio (%) by entry
# Test system: apple Alternaria leaf blotch (Alternaria mali)
# procedureText: Test Example 6: apple Alternaria leaf blotch, single and combined fungicides (Table 3)
# conditionInfo: 1.6 ppm active ingredient, apple leaves
readoutType: Lesion area ratio (%)

molecule | observedMeasurement
CC#Cc1cc(C)nc(Nc2ccccc2)n1 [Mepanipyrim, mepanipyrim, reference compound] | 73.3
N=C(N)NCCCCCCCCNCCCCCCCCNC(=N)N [Iminoctadine, iminoctadine, reference compound] | 33.8
Cc1ccc(S(=O)(=O)N(c2ccc(Cl)cc2C#N)C(C)C)cc1 [Compound No. 97] | 19.2
CCN(c1ccc(Cl)cc1[N+](=O)[O-])S(=O)(=O)c1ccc(C)cc1 [Compound No. 289] | 13.7

---

// reported Protection value per item
# System: apple Alternaria leaf blotch (Alternaria mali)
# procedureText: Test Example 6: apple Alternaria leaf blotch, single and combined fungicides (Table 3)
# conditionInfo: 6.3 ppm active ingredient, apple leaves

compound | testTarget | Protection value
CC#Cc1cc(C)nc(Nc2ccccc2)n1 [Mepanipyrim, mepanipyrim, reference compound] | apple Alternaria leaf blotch (Alternaria mali) | 73
N=C(N)NCCCCCCCCNCCCCCCCCNC(=N)N [Iminoctadine, iminoctadine, reference compound] | apple Alternaria leaf blotch (Alternaria mali) | 51
CCN(c1ccc(Cl)cc1[N+](=O)[O-])S(=O)(=O)c1ccc(C)cc1 [Compound No. 289] | apple Alternaria leaf blotch (Alternaria mali) | 87
Cc1ccc(S(=O)(=O)N(c2ccc(Cl)cc2C#N)C(C)C)cc1 [Compound No. 97] | apple Alternaria leaf blotch (Alternaria mali) | 89
